system_tested: Peroxisome proliferator-activated receptor alpha (Homo sapiens, UniProt Q07869)
Sequence (Q07869 whole entry, the tested form may be a part): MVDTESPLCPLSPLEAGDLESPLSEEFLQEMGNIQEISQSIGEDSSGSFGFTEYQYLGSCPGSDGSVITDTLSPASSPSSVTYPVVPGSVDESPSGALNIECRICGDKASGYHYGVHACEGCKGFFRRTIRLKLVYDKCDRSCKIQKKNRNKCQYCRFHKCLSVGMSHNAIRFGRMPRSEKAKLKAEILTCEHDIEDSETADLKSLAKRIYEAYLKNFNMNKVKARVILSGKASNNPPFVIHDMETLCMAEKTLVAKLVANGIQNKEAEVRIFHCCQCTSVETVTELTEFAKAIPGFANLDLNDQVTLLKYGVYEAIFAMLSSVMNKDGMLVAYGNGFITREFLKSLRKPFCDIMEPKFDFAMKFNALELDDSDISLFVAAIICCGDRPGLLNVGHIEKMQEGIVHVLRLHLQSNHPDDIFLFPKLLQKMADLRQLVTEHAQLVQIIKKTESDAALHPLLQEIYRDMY
measurement_description: Agonist activity at human Gal4 fused PPARalpha LBD expressed in COS-7 cells incubated for 24 hrs by firefly luciferase reporter gene assay
measured_attribute: EC50

[in] What does the record list as EC50 for `Cc1cc(COc2ccc3c(c2)O/C(=C\c2ccc(F)cc2)C3=O)cc(C)c1OC(C)(C)C(=O)O` ?
[out] > 10 µM

[in] What does the record list as EC50 for `CCOc1ccc(/C=C2\Oc3cc(OCc4cc(C)c(OC(C)(C)C(=O)O)c(C)c4)ccc3C2=O)cc1` ?
[out] > 10 µM

[in] What does the record list as EC50 for `CSc1ccc(C(=O)/C=C/c2cc(C)c(OC(C)(C)C(=O)O)c(C)c2)cc1` ?
[out] 0.76 µM

[in] What does the record list as EC50 for `COc1ccc(/C=C2\Oc3cc(OCc4cc(C)c(OC(C)(C)C(=O)O)c(C)c4)ccc3C2=O)cc1` ?
[out] > 10 µM

Values were extracted from ChEMBL document CHEMBL4811243.
